molecular target: T1, human PD-1 ECD/Fc fusion protein (human); assay: SPR Biacore, mAb captured, huPD-1/Fc analyte
T1 construct: also called huPD-1/Fc; HuPD-1 ECD/Fc
T1 sequence (chain, as listed by the source limits assumed): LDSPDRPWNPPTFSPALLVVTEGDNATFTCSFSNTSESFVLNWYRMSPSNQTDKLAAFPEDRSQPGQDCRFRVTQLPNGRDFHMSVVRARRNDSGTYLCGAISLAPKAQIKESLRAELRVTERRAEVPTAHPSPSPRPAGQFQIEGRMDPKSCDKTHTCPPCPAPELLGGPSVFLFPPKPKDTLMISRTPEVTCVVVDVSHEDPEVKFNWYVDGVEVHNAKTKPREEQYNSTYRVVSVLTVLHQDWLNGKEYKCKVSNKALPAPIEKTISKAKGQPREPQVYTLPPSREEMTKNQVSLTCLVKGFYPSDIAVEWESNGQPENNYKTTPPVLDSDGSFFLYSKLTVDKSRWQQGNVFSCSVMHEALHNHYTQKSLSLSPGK
Endpoint Label: kon (M⁻¹ s⁻¹)
Answer format: numeric, M⁻¹ s⁻¹ implied, no suffix.

1) mAb709 (antibody, V domains shown, murine hybridoma anti-PD-1 mAb) VH: EVKLVESGGGLVKPGGSLKLSCAASGFTFSFYTMSWVRQTPEKRLEWVATISGGGRDTYYPDSVKGRFTISRDNAKNTLYLHMSSLRSEDTALYYCAGQGGNYLFAYWGQGTLVTVSA VL: DIVMTQSHKFMSTSVGDSVTITCKASQDVNTVVAWYQQKPGQSLKVLISWASTRHTGVPARFTGSGSGTDYTLTISSVQAEDLALYYCQQHYTTPYTFGGGTQLEIK    111000

Data request: State the recorded kon for this entry: mAb714 (antibody, V domains shown, murine hybridoma anti-PD-1 mAb) VH: EVHLQQSGPELVKPGASVKIFCKASGYTFTDNNVEWVKQSHGKSLEWIGDINPNNGDTLYSQYFKDKATLTVDKSSTTAYMELRSLTSEDTGLYYCARGKSDQFDYWGQGTTLTVSS VL: DIQMTQSPASQSASLGESVTITCLASQTIGTWLAWYQQKPGKSPQLLIYAATSLADGVPSRFSGSGSGTKFSFKISSLQGEDFVSYYCQQLYSSPWTFGGGTKLEIK
Data returned: 99400

Numbers sourced from patent US20210188980A1.
